# credit: patent US20250250357A1

# EXPERIMENTAL_TARGET: T1, human MSLN-hFc protein (Acro, Cat. No. MSN-H5253) (human, UniProt Q13421 296-580)
# T1 construct: the method names the coated protein as human MSLN-hFc (Acro); also called human MSLN full-length protein
# T1 sequence (Q13421 other isoform, or with tags, fused parts or gaps limits assumed): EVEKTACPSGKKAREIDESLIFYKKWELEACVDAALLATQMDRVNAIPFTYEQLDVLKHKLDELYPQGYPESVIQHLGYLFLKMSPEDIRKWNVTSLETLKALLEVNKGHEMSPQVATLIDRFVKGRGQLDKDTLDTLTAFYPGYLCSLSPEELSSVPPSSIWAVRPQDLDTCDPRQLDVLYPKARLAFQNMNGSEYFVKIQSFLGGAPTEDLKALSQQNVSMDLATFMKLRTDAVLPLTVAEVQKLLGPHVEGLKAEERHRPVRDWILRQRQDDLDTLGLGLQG
# EXPERIMENT_NOTES: ELISA on coated antigen, antibody 0.1 nM

BINDER	READOUT_UNITS	OD450
F7.33.24-H10 (scFv, not shown: small tags and cut ends, also called S009-F7.33.24 humanized antibody VH2a + VL1) scFv: EVQLVQSGAEVKKPGASVKVSCKASGYTFTSYWMHWVRQAPGQGLEWMGNVNPSNAGSNYNEKFKNRVTITVDKSASTAYMELSSLRSEDTAVYYCAPHYIGSRPGFAYWGQGTLVTVSSGGGGSGGGGSGGGGSDIVMTQSPDSLAVSLGERATINCKASQNVGTNIAWYQQKPGQSPKALIYSASYRYSGVPDRFSGSGSGTDFTLTISSLQAEDVAVYYCQQYNSYPLTFGGGTKVEIK	OD450	0.09
